system: human 20S immunoproteasome subunit beta-5i (versus Mycobacterium tuberculosis 20S open gate mutant); experiment: Selectivity index, ratio of IC50 for human 20S immunoproteasome subunit beta-5i to IC50 for Mycobacterium tuberculosis 20S open gate mutant; type: toxicity; conditions: read-out: Ratio IC50
Measurement Label: selectivity ratio
Give bare numbers.

Solved cases (3 shown):
| Smiles Data | selectivity ratio |
| --- | --- |
| O=C1CCc2cccc(c2)OCCCC[C@@H](C(=O)NCc2ccccc2F)NC(=O)[C@H](CCN2CCC[C@@H]2c2ccccc2)N1 | 31 |
| O=C1CCc2cccc(c2)OCCCC[C@@H](C(=O)NCc2ccccc2F)NC(=O)[C@H](CC(=O)N2CCC[C@@H]2C2CC2)N1 | 11 |
| O=C1CCc2cccc(c2)OCCCC[C@@H](C(=O)NCc2ccccc2F)NC(=O)[C@H](CC(=O)N2CCC[C@H]2C2CC2)N1 | 11 |

Given "CCN(CC)C(=O)C[C@H](NC(=O)CCc1ccccc1)C(=O)N[C@@H](Cc1ccc(F)cc1)C(=O)NCc1cccc2ccccc12" , state its recorded selectivity ratio. 3650

* * *

Give measured selectivity ratio for each item. Keep answers brief.
tested on: human 20S constitutive proteasome subunit beta-5c (versus Mycobacterium tuberculosis 20S open gate mutant); test: Selectivity index, ratio of IC50 for human 20S constitutive proteasome subunit beta-5c to IC50 for Mycobacterium tuberculosis 20S open gate mutant; type: toxicity; details: read-out: Ratio IC50

Use these answered entries as a reference point.
| Smiles Data | Experimental Value |
| --- | --- |
| O=C1CCCCCCCCOC[C@@H](C(=O)NCc2ccccc2F)NC(=O)[C@H](CC(=O)N2CCC[C@@H]2c2ccccc2)N1 | > 14000 |
| CCN(CC)C(=O)C[C@H](NC(=O)CCc1ccccc1)C(=O)N[C@@H](Cc1ccc(F)cc1)C(=O)NCc1cccc2ccccc12 | 4670 |

// next entry
Return reported selectivity ratio; argument: "O=C1CCc2cccc(c2)OCCCC[C@@H](C(=O)NCc2ccccc2F)NC(=O)[C@H](CCN2CCC[C@@H]2c2ccccc2)N1" 57

* * *

assay: Inhibition of Mycobacterium tuberculosis 20S proteasome open gate mutant expressed in Escherichia coli BL21(DE3) using Suc-LLVY-AMC as substrate measured over 1.5 to 2 hrs by plate reader assay
Measurement Label: IC50 (nM)
Answers are plain numbers, in nM.

// worked examples, IC50 included
| Smiles Data | Readout Units | IC50 |
| --- | --- | --- |
| O=C1CCc2cccc(c2)Oc2ccc(cc2)C[C@@H](C(=O)NCc2ccccc2F)NC(=O)[C@H](CC(=O)N2CCCC2)N1 | nM | 200 |
| O=C1CCc2cccc(c2)OCCCC[C@@H](C(=O)NCc2ccccc2F)NC(=O)[C@H](CC(=O)N2CCC[C@@H]2C2CC2)N1 | nM | 7 |
| O=C1CCc2cccc(c2)Oc2ccc(cc2)C[C@@H](C(=O)NCc2ccccc2F)NC(=O)[C@H](CC(=O)N2CCC[C@@H]2c2ccccc2)N1 | nM | 7.4 |

Any idea what IC50 was measured for "O=C1CCCCCCCCOC[C@@H](C(=O)NCc2cccc3ccccc23)NC(=O)[C@H](CC(=O)N2CCCC2)N1" ? 100

* * *

assay: Inhibition of Mycobacterium tuberculosis 20S proteasome open gate mutant expressed in Escherichia coli BL21(DE3) using Suc-LLVY-AMC as substrate measured over 1.5 to 2 hrs by plate reader assay
Returns: string. Value is TRUE if measured IC50 is below 20 nM, and FALSE if it is greater than or equal to it.

| Smiles Data | Group Label |
| --- | --- |
| CCN(CC)C(=O)C[C@H](NC(=O)CCc1ccccc1)C(=O)N[C@@H](Cc1ccc(F)cc1)C(=O)NCc1cccc2ccccc12 | TRUE |

In the record for "CC(=O)N[C@H]1Cc2cccc(c2)Oc2ccc(cc2)C[C@@H](C(=O)NCc2ccccc2F)NC(=O)[C@H](CC(=O)N2CCC[C@@H]2c2ccccc2)NC1=O" , is IC50 less than 20 nM? FALSE

Given the entry "O=C1CCCCCCCCC[C@@H](C(=O)NCc2cccc3ccccc23)NC(=O)[C@H](CC(=O)N2CCCC2)N1" , would its reported IC50 be below 20 nM? FALSE

API: query returns whether the compound falls strictly under 20 nM in IC50. Query: "O=C(N[C@H]1Cc2cccc(c2)Oc2ccc(cc2)C[C@@H](C(=O)NCc2ccccc2F)NC(=O)[C@H](CC(=O)N2CCC[C@@H]2c2ccccc2)NC1=O)c1ccccc1" FALSE

Hello, is IC50 of the following compound strictly smaller than 20 nM? "O=C1CCCCCCCCOC[C@@H](C(=O)NCc2ccccc2F)NC(=O)[C@H](CC(=O)N2CCC[C@@H]2c2ccccc2)N1" TRUE

Criterion: IC50 strictly below 20 nM. Is it met by "O=C1CCc2cccc(c2)OCCCC[C@@H](C(=O)NCc2ccccc2F)NC(=O)[C@H](CC(=O)N2CCC[C@H]2C2CC2)N1" ? FALSE

Does the reported IC50 of the following compound sit strictly below 20 nM? "O=C1CCc2cccc(c2)OCCCC[C@@H](C(=O)NCc2ccccc2F)NC(=O)[C@H](CC(=O)N2CCC[C@@H]2c2ccccc2)N1" TRUE

* * *

system: human 20S constitutive proteasome subunit beta-5c (versus Mycobacterium tuberculosis 20S open gate mutant); assay: Selectivity index, ratio of IC50 for human 20S constitutive proteasome subunit beta-5c to IC50 for Mycobacterium tuberculosis 20S open gate mutant; assay type: toxicity; conditions: read-out: Ratio IC50
Measurement Label: selectivity ratio

| Smiles Data | Experimental Value |
| --- | --- |
| O=C(N[C@H]1Cc2cccc(c2)Oc2ccc(cc2)C[C@@H](C(=O)NCc2ccccc2F)NC(=O)[C@H](CC(=O)N2CCC[C@@H]2c2ccccc2)NC1=O)c1ccccc1 | > 119 |
| O=C1CCc2cccc(c2)OCCCC[C@@H](C(=O)NCc2ccccc2F)NC(=O)[C@H](CC(=O)N2CCC[C@H]2C2CC2)N1 | 19 |
| O=C1CCc2cccc(c2)Oc2ccc(cc2)C[C@@H](C(=O)NCc2ccccc2F)NC(=O)[C@H](CC(=O)N2CCC[C@@H]2c2ccccc2)N1 | > 13600 |
| O=C1CCc2cccc(c2)OCCCC[C@@H](C(=O)NCc2ccccc2F)NC(=O)[C@H](CC(=O)N2CCC[C@@H]2C2CC2)N1 | 11 |
| O=C1CCc2cccc(c2)OCCCC[C@@H](C(=O)NCc2ccccc2F)NC(=O)[C@H](CC(=O)N2CCC[C@@H]2c2ccccc2)N1 | > 14000 |

I'd like to know its selectivity ratio. The compound in question is "CC(=O)N[C@H]1Cc2cccc(c2)Oc2ccc(cc2)C[C@@H](C(=O)NCc2ccccc2F)NC(=O)[C@H](CC(=O)N2CCC[C@@H]2c2ccccc2)NC1=O" > 594

* * *

tested on: human 20S immunoproteasome subunit beta-5i (versus Mycobacterium tuberculosis 20S open gate mutant); assay: Selectivity index, ratio of IC50 for human 20S immunoproteasome subunit beta-5i to IC50 for Mycobacterium tuberculosis 20S open gate mutant; format: toxicity; conditions: read-out: Ratio IC50
I'd appreciate it if you could supply selectivity ratio values for the items below.

Here is how some compounds turned out for selectivity ratio.
| Smiles Data | Experimental Value |
| --- | --- |
| O=C1CCc2cccc(c2)Oc2ccc(cc2)C[C@@H](C(=O)NCc2ccccc2F)NC(=O)[C@H](CC(=O)N2CCCC2)N1 | 108 |
| O=C1CCc2cccc(c2)OCCCC[C@@H](C(=O)NCc2ccccc2F)NC(=O)[C@H](CC(=O)N2CCC[C@@H]2c2ccccc2)N1 | > 14000 |

Now consider a different compound.
Would you kindly share the measured selectivity ratio for "CC(=O)N[C@H]1Cc2cccc(c2)Oc2ccc(cc2)C[C@@H](C(=O)NCc2ccccc2F)NC(=O)[C@H](CC(=O)N2CCC[C@@H]2c2ccccc2)NC1=O" ? > 594

* * *

test: Inhibition of Mycobacterium tuberculosis 20S proteasome open gate mutant expressed in Escherichia coli BL21(DE3) using Suc-LLVY-AMC as substrate measured over 1.5 to 2 hrs by plate reader assay
Would you kindly list pIC50 for each of these compounds?
Numbers only, as −log10 of the molar value.

Before answering, review these 2 worked examples.
| Compound | pIC50 |
| --- | --- |
| O=C1N[C@@H](CC(=O)N2CCCC2)C(=O)N[C@H](C(=O)NCc2cccc3ccccc23)CCCCCCCCCC1Cc1ccccc1 (some centres undefined) | 5.30 |
| O=C1CCc2cccc(c2)OCCCC[C@@H](C(=O)NCc2ccccc2F)NC(=O)[C@H](CCN2CCC[C@@H]2c2ccccc2)N1 | 5.82 |

Now let's try a different one.
Please look up its pIC50: "O=C1CCCCCCCCCC[C@@H](C(=O)NCc2cccc3ccccc23)NC(=O)[C@H](CC(=O)N2CCCC2)N1" 6.82

* * *

system: human 20S immunoproteasome subunit beta-5i (versus Mycobacterium tuberculosis 20S open gate mutant); experiment: Selectivity index, ratio of IC50 for human 20S immunoproteasome subunit beta-5i to IC50 for Mycobacterium tuberculosis 20S open gate mutant; format: toxicity; conditions: read-out: Ratio IC50
I'd be grateful if you could share measured selectivity ratio for these entries.

| Smiles Data | selectivity ratio |
| --- | --- |
| O=C(N[C@H]1Cc2cccc(c2)Oc2ccc(cc2)C[C@@H](C(=O)NCc2ccccc2F)NC(=O)[C@H](CC(=O)N2CCC[C@@H]2c2ccccc2)NC1=O)c1ccccc1 | > 119 |
| O=C1CCCCCCCCOC[C@@H](C(=O)NCc2ccccc2F)NC(=O)[C@H](CC(=O)N2CCC[C@@H]2c2ccccc2)N1 | > 14000 |

Continue with the next molecule.
Name the reported selectivity ratio value associated with the molecule "O=C1CCc2cccc(c2)Oc2ccc(cc2)C[C@@H](C(=O)NCc2ccccc2F)NC(=O)[C@H](CC(=O)N2CCC[C@@H]2c2ccccc2)N1" > 13600
